The entries below come with measured binding signal values attached.
- Assayed System: GST-Dm-Relish (Drosophila melanogaster, UniProt Q94527 99-473)
- Sequence: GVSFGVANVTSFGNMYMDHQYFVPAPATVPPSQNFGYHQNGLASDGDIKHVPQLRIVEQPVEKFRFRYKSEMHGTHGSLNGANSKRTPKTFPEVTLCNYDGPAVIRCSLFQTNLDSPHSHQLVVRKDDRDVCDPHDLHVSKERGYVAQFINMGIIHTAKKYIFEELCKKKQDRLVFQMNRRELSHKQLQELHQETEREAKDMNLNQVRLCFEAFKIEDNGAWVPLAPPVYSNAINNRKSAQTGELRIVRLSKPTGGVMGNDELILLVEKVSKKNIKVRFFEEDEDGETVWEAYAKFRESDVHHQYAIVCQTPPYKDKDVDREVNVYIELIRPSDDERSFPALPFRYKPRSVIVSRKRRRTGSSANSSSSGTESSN
- Assay Protocol: protein-binding microarray (PBM); PBM: ~300 nM protein, 6 mM HEPES pH 7.8, 80 mM KCl, 0.5 mM EDTA, 0.5 mM EGTA, 6% glycerol, 35 ng/ul poly-dIdC, 1% milk, 1 h, room temperature; high values mean tight binding
- Run Parameters: dsDNA, one strand shown

Below: 3 sequences and their reported binding signal.
CCGATTAACATCAGGGAATCCACTGATGTTAATCGGGTCTTGATTCGCTTGACGCTGCTG; 7.85 z-score
CCGATTAACATCACCGTTCCCCCTGATGTTAATCGGGTCTTGATTCGCTTGACGCTGCTG; 2.76 z-score
CCGATTAACATCACAATTTTCCCTGATGTTAATCGGGTCTTGATTCGCTTGACGCTGCTG; 2.17 z-score

Looking up CCGATTAACATCAAATATTCCCCTGATGTTAATCGGGTCTTGATTCGCTTGACGCTGCTG , I see its binding signal listed as 7.22 z-score

// binding signal value for CCGATTAACATCAGGGGGACAACTGATGTTAATCGGGTCTTGATTCGCTTGACGCTGCTG : 3.66 z-score

* * *

- Assayed System: GST-Ap-NF-kB RHD (Exaiptasia pallida (Aiptasia), UniProt A0A913YAJ5 2-422)
- Sequence: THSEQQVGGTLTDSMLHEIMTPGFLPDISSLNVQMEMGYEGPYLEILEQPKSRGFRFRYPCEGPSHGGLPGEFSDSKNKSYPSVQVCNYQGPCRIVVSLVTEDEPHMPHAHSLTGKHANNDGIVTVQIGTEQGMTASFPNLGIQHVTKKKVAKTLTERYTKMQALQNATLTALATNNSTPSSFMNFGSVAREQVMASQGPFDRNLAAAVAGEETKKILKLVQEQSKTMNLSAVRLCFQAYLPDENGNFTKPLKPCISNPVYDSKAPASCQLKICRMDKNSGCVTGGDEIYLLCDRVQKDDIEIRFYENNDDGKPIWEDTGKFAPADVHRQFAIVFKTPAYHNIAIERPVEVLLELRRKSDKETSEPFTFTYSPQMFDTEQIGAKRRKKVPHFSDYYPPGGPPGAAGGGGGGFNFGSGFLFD
- Assay Protocol: protein-binding microarray (PBM); PBM: ~300 nM protein, 6 mM HEPES pH 7.8, 80 mM KCl, 0.5 mM EDTA, 0.5 mM EGTA, 6% glycerol, 35 ng/ul poly-dIdC, 1% milk, 1 h, room temperature; Ap Aiptasia and Nv Nematostella (sea anemones) / Co Capsaspora / Aq Amphimedon (sponge) / Dm Drosophila / Hu human; RHD is the Rel homology domain; high values mean tight binding
- Run Parameters: dsDNA, one strand shown
# binding signal binned as Low: < 4 z-score; Medium: ≥ 4 z-score and < 7 z-score; High: ≥ 7 z-score

Solved cases below.
CCGATTAACATCAGGGAATGACCTGATGTTAATCGGGTCTTGATTCGCTTGACGCTGCTG; Low
CCGATTAACATCAGGGGAAACAATGATGTTAATCGGGTCTTGATTCGCTTGACGCTGCTG; Medium

Form field 'band' for CCGATTAACATCAGGGGTAACACTGATGTTAATCGGGTCTTGATTCGCTTGACGCTGCTG
Low

Exercise: read the entry CCGATTAACATCAAAAAATACCCTGATGTTAATCGGGTCTTGATTCGCTTGACGCTGCTG and state which class it falls under.
Medium

Into which category would you place CCGATTAACATCACGGTACTTCCTGATGTTAATCGGGTCTTGATTCGCTTGACGCTGCTG ?
Low

Which category does the recorded binding signal put CCGATTAACATCAGGGCAGCCCCTGATGTTAATCGGGTCTTGATTCGCTTGACGCTGCTG in?
Medium

Entry CCGATTAACATCAGAATTTCCCCTGATGTTAATCGGGTCTTGATTCGCTTGACGCTGCTG belongs to which category?
High

Hi there! Could you help me figure out the category for CCGATTAACATCAGGGTTTTTAGTGATGTTAATCGGGTCTTGATTCGCTTGACGCTGCTG please?
Low

# bin lookup: classify CCGATTAACATCAGGGGAGGTACTGATGTTAATCGGGTCTTGATTCGCTTGACGCTGCTG by its binding signal
Medium

Determine which band this sequence sits in: CCGATTAACATCAGGGGATACCCTGATGTTAATCGGGTCTTGATTCGCTTGACGCTGCTG
High

Please classify: CCGATTAACATCACGAATTCCCCTGATGTTAATCGGGTCTTGATTCGCTTGACGCTGCTG
High

The entry to classify is CCGATTAACATCAAAAAGCCCCTTGATGTTAATCGGGTCTTGATTCGCTTGACGCTGCTG ; which class holds it?
High

Assign a category based on measured binding signal for CCGATTAACATCAATAAAATCCCTGATGTTAATCGGGTCTTGATTCGCTTGACGCTGCTG and give only the class name.
Medium
